The entries below come with measured Plant response rating, Goosegrass values attached.
Test system: goosegrass
method: Test F preemergence
Type: in vivo, Eleusine indica
details: preemergence; 8 g ai/ha; scale 0 to 100, 100 is complete control
Form rule: numeric answer, no unit written next to it.

{"itemSmiles": "Cc1cc(C(=O)NC(C)C)nn1Cc1ccnc(C(F)(F)F)c1", "Plant response rating, Goosegrass": 0}

API: value(readout= Plant response rating, Goosegrass, system= goosegrass, query= CCc1cc(C(=O)NCC(F)(F)F)nn1Cc1ccnc(C(F)(F)F)c1 )
5

Entry CCNC(=O)c1cc(CCCl)n(Cc2ccnc(C(F)(F)F)c2)n1 please
0

Entry CCCc1cc(C(=O)NCC(F)(F)F)nn1Cc1ccnc(C(F)(F)F)c1 please
30

----------
Tested on: radish, wild
method: Test D postemergence
Format: in vivo, Raphanus raphanistrum
details: Postemergence, 125 g ai/ha, scale 0 to 100
propertyLabel: Radish, Wild plant response rating

Use these answered entries as a reference point.
{"itemSmiles": "CCCc1cc(C(=O)NCC(F)(F)F)nn1Cc1ccnc(C(F)(F)F)c1", "result": 70}
{"itemSmiles": "CCOc1cc(C(=O)NC2CC2)nn1Cc1ccnc(C(F)(F)F)c1", "result": 65}
{"itemSmiles": "CCOc1cc(C(=O)NC(C)C)nn1Cc1ccnc(C(F)(F)F)c1", "result": 70}

Pending molecule:
API: value(readout= Radish, Wild plant response rating, system= radish, wild, query= CCc1cc(C(=O)NCC(F)(F)F)nn1Cc1ccnc(C(F)(F)F)c1 )
60

----------
System: corn
method: Test C postemergence
Format: in vivo, Zea mays
details: postemergence, 62 g ai/ha; scale 0 to 100
The entries below come with measured Corn plant response rating values attached.
Form rule: numeric answer, no unit written next to it.

Use these answered entries as a reference point.
{"itemSmiles": "CCNC(=O)c1cc(CC)n(Cc2ccnc(OC(F)F)c2)n1", "Corn plant response rating": 5}
{"itemSmiles": "CCCc1cc(C(=O)NCC)nn1Cc1ccnc(C(F)(F)F)c1", "Corn plant response rating": 10}
{"itemSmiles": "CCOc1cc(C(=O)NCC(F)(F)F)nn1Cc1ccnc(C(F)(F)F)c1", "Corn plant response rating": 35}
{"itemSmiles": "CCCc1cc(C(=O)NCC)nn1Cc1cc(C(F)(F)F)nn1C", "Corn plant response rating": 10}
{"itemSmiles": "CCc1cc(C(=O)NC2CC2)nn1Cc1ccnc(OCC(F)(F)F)c1", "Corn plant response rating": 5}
{"itemSmiles": "CCc1cc(C(=O)NC(C)C)nn1Cc1ccnc(C(F)(F)F)c1", "Corn plant response rating": 10}

Pending compound:
Consider the compound shown here: CCCc1cc(C(=O)NCC(F)(F)F)nn1Cc1ccnc(C(F)(F)F)c1 What is its recorded Corn plant response rating?
40

----------
Tested on: barnyardgrass
method: Test A preemergence
Type: in vivo, Echinochloa crus-galli
details: preemergence, 500 g ai/ha, visual injury after approx. 10 days, 0 to 100 scale (0 no effect, 100 complete control)
The entries below come with measured Barnyardgrass plant response rating values attached.

Use these answered entries as a reference point.
{"itemSmiles": "CCCCc1cc(C(=O)NC2CC2)nn1Cc1ccnc(C(F)(F)F)c1", "Barnyardgrass plant response rating": 60}
{"itemSmiles": "CCc1cc(C(=O)NCC(F)(F)F)nn1Oc1cccc(C(F)(F)F)n1", "Barnyardgrass plant response rating": 0}
{"itemSmiles": "CCc1cc(C(=O)NC(C)C)nn1Cc1ccnc(C(F)(F)F)c1", "Barnyardgrass plant response rating": 100}

API: value(readout= Barnyardgrass plant response rating, system= barnyardgrass, query= CCOc1cc(C(=O)NC2CC2)nn1Cc1ccnc(C(F)(F)F)c1 )
100

Entry CCCc1cc(C(=O)NOCC)nn1Cc1ccnc(C(F)(F)F)c1 please
100

Entry Cc1cc(C(=O)NC(C)C)nn1Cc1ccnc(C(F)(F)F)c1 please
100

Entry CCCNC(=O)c1cc(CCCl)n(Cc2ccnc(C(F)(F)F)c2)n1 please
100

Entry CCc1cc(C(=O)NC2CC2)nn1Cc1ccnc(OC(F)F)c1 please
100

Entry CCCNC(=O)c1cc(CC)n(Cc2cc(OC(F)F)nn2C)n1 please
90

----------
System: blackgrass
method: Test D postemergence
Assay type: in vivo, Alopecurus myosuroides
details: Postemergence, 250 g ai/ha, scale 0 to 100
The entries below come with measured Blackgrass plant response rating values attached.
Form rule: numeric answer, no unit written next to it.

Use these answered entries as a reference point.
{"itemSmiles": "CCCc1cc(C(=O)NCC(F)(F)F)nn1Cc1ccnc(C(F)(F)F)c1", "Blackgrass plant response rating": 70}
{"itemSmiles": "CCOc1cc(C(=O)NC(C)C)nn1Cc1ccnc(C(F)(F)F)c1", "Blackgrass plant response rating": 45}
{"itemSmiles": "CCc1cc(C(=O)NCC(F)(F)F)nn1Cc1ccnc(C(F)(F)F)c1", "Blackgrass plant response rating": 65}

Pending molecule:
API: value(readout= Blackgrass plant response rating, system= blackgrass, query= CCCc1cc(C(=O)NCC(F)(F)F)nn1Cc1cc(C(F)(F)F)nn1C )
75

----------
The entries below come with measured Wheat plant response rating values attached.
Tested on: wheat
method: Test C preemergence
Assay type: in vivo, Triticum aestivum
details: preemergence, 62 g ai/ha; scale 0 to 100 (0 no effect, 100 complete control), 13 to 15 days
Form rule: numeric answer, no unit written next to it.

Use these answered entries as a reference point.
{"itemSmiles": "CCCc1cc(C(=O)NCC(F)(F)F)nn1Cc1ccnc(C(F)(F)F)c1", "Wheat plant response rating": 85}
{"itemSmiles": "CCc1cc(C(=O)NC2CC2)nn1Cc1cc(C(F)(F)C(F)(F)F)nn1C", "Wheat plant response rating": 0}
{"itemSmiles": "CCNC(=O)c1cc(CCCl)n(Cc2ccnc(C(F)(F)F)c2)n1", "Wheat plant response rating": 0}

API: value(readout= Wheat plant response rating, system= wheat, query= CCCNC(=O)c1cc(CCCl)n(Cc2ccnc(C(F)(F)F)c2)n1 )
40

Entry CCCNC(=O)c1cc(CC)n(Cc2ccnc(OC(F)F)c2)n1 please
15

Entry CCONC(=O)c1cc(OCC)n(Cc2ccnc(C(F)(F)F)c2)n1 please
45

Entry CCONC(=O)c1cc(CC)n(Cc2cc(C(F)(F)F)no2)n1 please
0

Entry CCc1cc(C(=O)NC2CC2)nn1Cc1ccnc(OCC(F)(F)F)c1 please
15

----------
Test system: morningglory
method: Test A preemergence
Format: in vivo, Ipomoea spp.
details: Preemergence, 500 g ai/ha; 0 to 100 scale, 0 no effect, 100 complete control
The entries below come with measured Morningglory plant response rating values attached.
Form rule: numeric answer, no unit written next to it.

{"compound": "Cc1cc(C(=O)NCC(F)(F)F)nn1Cc1ccc(F)c(C(F)(F)F)c1 [Compound 12]", "Morningglory plant response rating": 10}
{"compound": "CCCNC(=O)c1cc(C)n(Oc2ccnc(C(F)(F)F)c2)n1 [Compound 80]", "Morningglory plant response rating": 60}
{"compound": "Cc1cc(C(=O)NC2CC2)nn1Cc1cccc(OC(F)(F)F)c1 [Compound 21]", "Morningglory plant response rating": 40}
{"compound": "CCNC(=O)c1cc(C)n(Cc2cccc(OC(F)(F)F)c2)n1 [Compound 4]", "Morningglory plant response rating": 20}

Pending compound:
Consider the compound shown here: CNC(=O)c1cc(C)n(Cc2cccc(OC(F)(F)F)c2)n1 [Compound 3] What is its recorded Morningglory plant response rating?
0

----------
Tested on: foxtail, giant
method: Test A postemergence
Format: in vivo, Setaria faberii
details: postemergence, 125 g ai/ha, about 10 days, visual rating on 0 to 100 scale (0 no effect, 100 complete control)
propertyLabel: Foxtail, Giant plant response rating
Form rule: numeric answer, no unit written next to it.

Use these answered entries as a reference point.
{"itemSmiles": "CCc1cc(C(=O)NOC)nn1Cc1ccnc(C(F)(F)F)c1", "measuredOn": "foxtail, giant", "Foxtail, Giant plant response rating": 60}
{"itemSmiles": "CCCNC(=O)c1cc(CC)n(Cc2cc(C(F)(F)F)no2)n1", "measuredOn": "foxtail, giant", "Foxtail, Giant plant response rating": 0}
{"itemSmiles": "CCOc1cc(C(=O)NC2CC2)nn1Cc1ccnc(C(F)(F)F)c1", "measuredOn": "foxtail, giant", "Foxtail, Giant plant response rating": 90}
{"itemSmiles": "CCc1cc(C(=O)NCC2CC2)nn1Cc1ccnc(C(F)(F)F)c1", "measuredOn": "foxtail, giant", "Foxtail, Giant plant response rating": 90}

Pending molecule:
Consider the molecule shown here: CCc1cc(-c2ccc(F)cc2)nn1Cc1ccnc(C(F)(F)F)c1 What is its recorded Foxtail, Giant plant response rating?
40

----------
System: ryegrass, Italian
method: Test C postemergence
Type: in vivo, Lolium multiflorum
details: postemergence; 125 g ai/ha; scale 0 to 100, 0 no effect, 100 complete control
The entries below come with measured Plant response rating, Ryegrass, Italian values attached.
Form rule: numeric answer, no unit written next to it.

Consider the compound shown here: CCc1cc(C(=O)NC2CC2)nn1Cc1ccnc(OC(F)F)c1 [Compound 98] What is its recorded Plant response rating, Ryegrass, Italian?
10

Entry CCCc1cc(C(=O)NCC)nn1Cc1cc(C(F)(F)F)nn1C [Compound 129] please
5
